- Test system: Bacillus anthracis
- experimentSummary: Inhibition of inosine/L-alanine-induced Bacillus anthracis Sterne 34F2 spore germination pretreated for 15 mins before inosine/L-alanine challenge
- Format: functional, organism-based
assayReadout: IC50

Nc1nc2nc[nH]c2c(=S)[nH]1 = Not Active
C[n+]1cn([C@@H]2O[C@H](CO)[C@@H](O)[C@H]2O)c2nc[nH]c(=O)c21 = Not Active
Nc1nc(=O)[nH]c2c1ncn2[C@@H]1O[C@H](CO)[C@@H](O)[C@H]1O = Not Active
O=c1cc[nH]c(=S)[nH]1 = Not Active

QUERY: Field request: IC50 | item: "Nc1nc(Cl)c2nc[nH]c2n1"
RESULT: Not Active

QUERY: Next: "Sc1ccncc1"
RESULT: Not Active

###

- System: Bacillus anthracis
- experimentSummary: Antibacterial activity against Bacillus anthracis Sterne 34F2 infected in mouse J774A.1 cells assessed as protection against bacteria-induced cytotoxicity using propidium iodide staining after 3 hrs measured every hours for up to 7 hrs
- Type: functional, organism-based
- assaySetup: Bacillus anthracis, Sterne 34F2, J774.A1; read-out: IC50
log10(IC50) by entry:
Use the decimal logarithm of IC50 (µM).

OC[C@H]1O[C@@H](n2cnc3c(SCc4ccccc4)ncnc32)[C@H](O)[C@@H]1O = 3.02

QUERY: # value lookup — system Bacillus anthracis, readout log10(IC50), item "Nc1nc2c(ncn2[C@@H]2O[C@H](CO)[C@@H](O)[C@H]2O)c(=S)[nH]1"
RESULT: 0.60

QUERY: Next: Sc1ncnc2nc[nH]c12 [MERCAPTOPURINE ANHYDROUS]
RESULT: 2.60

QUERY: Next: "Nc1nc(Cl)c2nc[nH]c2n1"
RESULT: 2.30

###

- System: Bacillus anthracis
- experimentSummary: Antibacterial activity against Bacillus anthracis Sterne 34F2 infected in mouse J774A.1 cells assessed as protection against bacteria-induced cytotoxicity using propidium iodide staining after 3 hrs measured every hours for up to 7 hrs
- Assay type: functional, organism-based
- assaySetup: Bacillus anthracis, Sterne 34F2, J774.A1; read-out: IC50
assayReadout: pIC50
Here pIC50 is given on a logarithmic scale as minus log10 of the concentration in mol/L.

Example entries and their recorded answers appear below.
Nc1nc(Cl)c2ncn([C@@H]3O[C@H](CO)[C@@H](O)[C@H]3O)c2n1 = 3.72
O=c1ncnc2n([C@H]3O[C@@H](CO)[C@H](O)[C@@H]3O)[nH]cc1-2 [ALLOPURINOL RIBOSIDE] = 3.19
C[C@@H](N)C(=O)O = 4.70
Nc1nc2nc[nH]c2c(=S)[nH]1 = 5.70

For the next question, use this molecule.
QUERY: # value lookup — system Bacillus anthracis, readout pIC50, item "OC[C@H]1O[C@@H](n2cnc3c(S)ncnc32)[C@H](O)[C@@H]1O"
RESULT: 4.40
